Listed here are molecules together with their documented mass density.
details: 288.15 K; 100 kPa; Liquid; Vibrating tube method
± gives the expanded uncertainty stated by the source.
Provide the measurement as a number trailed by its unit.

Please review the entries below; each comes with its answer.
{"molecule": "CCCCCCn1cc[n+](C)c1C.O=S(=O)([N-]S(=O)(=O)C(F)(F)F)C(F)(F)F", "mass density": "1368.4 ± 12 kg/m3"}
{"molecule": "CCn1cc[n+](C)c1.O=S(=O)([N-]S(=O)(=O)C(F)(F)F)C(F)(F)F", "mass density": "1529 ± 4.1 kg/m3"}
{"molecule": "CCCCCC[n+]1ccn(C)c1.O=S(=O)([N-]S(=O)(=O)C(F)(F)F)C(F)(F)F", "mass density": "1381 ± 4 kg/m3"}
{"molecule": "CCCC[n+]1ccn(C)c1.O=S(=O)([N-]S(=O)(=O)C(F)(F)F)C(F)(F)F", "mass density": "1446.3 ± 4 kg/m3"}

Lab note: next molecule to report on.
Recorded result, CCCCCCCC[P+](CC)(CC)CC.O=[N+]([O-])c1cn[n-]c1 [triethyloctylphosphonium 4-nitropyrazolide] , mass density: 1037.7 ± 12 kg/m3

---

assay: xn = mol fraction of the nth substance listed; settings: 288.15 K; 100 kPa; Liquid; Cone and plate viscometry; x1 = 0.9
± gives the expanded uncertainty stated by the source.
Listed here are compounds together with their documented viscosity.
Provide the measurement as a number trailed by its unit.

{"compound": "CCCCCCCC[P+](CC)(CC)CC.O=[N+]([O-])c1cn[n-]c1 [triethyloctylphosphonium 4-nitropyrazolide] + CCCCCCn1cc[n+](C)c1C.O=S(=O)([N-]S(=O)(=O)C(F)(F)F)C(F)(F)F", "viscosity": "589 ± 76 mPa·s"}
{"compound": "CCCCCCn1cc[n+](C)c1.N#Cc1ccc[n-]1 [1-hexyl-3-methylimidazolium 2-cyanopyrrolide] + CCCCCCCCCCCCCC[P+](CCCCCC)(CCCCCC)CCCCCC.O=S(=O)([N-]S(=O)(=O)C(F)(F)F)C(F)(F)F", "viscosity": "566 ± 74 mPa·s"}
{"compound": "CCCCCCn1cc[n+](C)c1.O=[N+]([O-])c1cn[n-]c1 [1-hexyl-3-methylimidazolium 4-nitropyrazolide] + CCCCCCCC[P+](CC)(CC)CC.O=S(=O)([N-]S(=O)(=O)C(F)(F)F)C(F)(F)F", "viscosity": "765 ± 100 mPa·s"}

Recorded result, CCCCCCn1cc[n+](C)c1.O=[N+]([O-])c1cn[n-]c1 [1-hexyl-3-methylimidazolium 4-nitropyrazolide] + CCCCCCCCCCCCCC[P+](CCCCCC)(CCCCCC)CCCCCC.O=S(=O)([N-]S(=O)(=O)C(F)(F)F)C(F)(F)F , viscosity: 935 ± 120 mPa·s

Recorded result, CCCCCCCCCC[P+](CC)(CC)CC.O=[N+]([O-])c1cn[n-]c1 [decyltriethylphosphonium 4-nitropyrazolide] + CC[P+](CC)(CC)COCCOC.O=S(=O)([N-]S(=O)(=O)C(F)(F)F)C(F)(F)F , viscosity: 531 ± 68 mPa·s

---

Listed here are molecules together with their documented viscosity.
test: xn = mol fraction of the nth substance listed; settings: 288.15 K; 100 kPa; Liquid; Cone and plate viscometry; x1 = 0.2
Hi! Could you send only the number? It should be in mPa·s, unit omitted.

Please review the entries below; each comes with its answer.
{"molecule": "CCCCCCCCCCCCCC[P+](CCCCCC)(CCCCCC)CCCCCC.N#Cc1ccc[n-]1 [trihexyl(tetradecyl)phosphonium 2-cyanopyrrolide] + CCCCCC[n+]1ccn(C)c1.O=S(=O)([N-]S(=O)(=O)C(F)(F)F)C(F)(F)F", "unit-descriptor": "mPa·s", "result": 259}
{"molecule": "CCCCCCCCCCCCCC[P+](CCCCCC)(CCCCCC)CCCCCC.O=S(=O)([N-]S(=O)(=O)C(F)(F)F)C(F)(F)F + CCCCCC[n+]1ccn(C)c1.O=S(=O)([N-]S(=O)(=O)C(F)(F)F)C(F)(F)F", "unit-descriptor": "mPa·s", "result": 205}
{"molecule": "CCCCCCCCCCCCCC[P+](CCCCCC)(CCCCCC)CCCCCC.O=[N+]([O-])c1cn[n-]c1 [trihexyl(tetradecyl)phosphonium 4-nitropyrazolide] + CCCCCC[n+]1ccn(C)c1.O=S(=O)([N-]S(=O)(=O)C(F)(F)F)C(F)(F)F", "unit-descriptor": "mPa·s", "result": 261}

Lab note: next molecule to report on.
Recorded result, CCCCCCn1cc[n+](C)c1.N#Cc1ccc[n-]1 [1-hexyl-3-methylimidazolium 2-cyanopyrrolide] + CCCCCCCCCCCCCC[P+](CCCCCC)(CCCCCC)CCCCCC.O=S(=O)([N-]S(=O)(=O)C(F)(F)F)C(F)(F)F , viscosity: 605

---

assay: xn = mol fraction of the nth substance listed; details: 283.15 K; 100 kPa; Liquid; Cone and plate viscometry; x1 = 0.499
Listed here are compounds together with their documented viscosity.
Hi! Could you send only the number? It should be in mPa·s, unit omitted.

Please review the entries below; each comes with its answer.
{"compound": "CCCCCCn1cc[n+](C)c1.O=[N+]([O-])c1cn[n-]c1 [1-hexyl-3-methylimidazolium 4-nitropyrazolide] + CCCCCCCC[P+](CC)(CC)CC.O=S(=O)([N-]S(=O)(=O)C(F)(F)F)C(F)(F)F", "viscosity (mPa·s)": 428}
{"compound": "CCCCCCn1cc[n+](C)c1C.O=[N+]([O-])c1cn[n-]c1 [1-hexyl-2,3-dimethylimidazolium 4-nitropyrazolide] + CCCCCCCC[P+](CC)(CC)CC.O=S(=O)([N-]S(=O)(=O)C(F)(F)F)C(F)(F)F", "viscosity (mPa·s)": 636}
{"compound": "CC(=O)[O-].CCCCCCCCCCCCCC[P+](CCCCCC)(CCCCCC)CCCCCC [trihexyl(tetradecyl)phosphonium acetate] + CCCCCC[n+]1ccn(C)c1.O=S(=O)([N-]S(=O)(=O)C(F)(F)F)C(F)(F)F", "viscosity (mPa·s)": 1345}
{"compound": "CCCCCCCC[P+](CC)(CC)CC.O=[N+]([O-])c1cn[n-]c1 [triethyloctylphosphonium 4-nitropyrazolide] + CCCCCC[n+]1ccn(C)c1.O=S(=O)([N-]S(=O)(=O)C(F)(F)F)C(F)(F)F", "viscosity (mPa·s)": 456}
{"compound": "CCCCCCn1cc[n+](C)c1.N#Cc1ccc[n-]1 [1-hexyl-3-methylimidazolium 2-cyanopyrrolide] + CCCCCCCCCCCCCC[P+](CCCCCC)(CCCCCC)CCCCCC.O=S(=O)([N-]S(=O)(=O)C(F)(F)F)C(F)(F)F", "viscosity (mPa·s)": 846}

Lab note: next compound to report on.
Recorded result, CCCCCCCCCC[P+](CC)(CC)CC.O=[N+]([O-])c1cn[n-]c1 [decyltriethylphosphonium 4-nitropyrazolide] + CC[P+](CC)(CC)COCCOC.O=S(=O)([N-]S(=O)(=O)C(F)(F)F)C(F)(F)F , viscosity: 239

---

experiment: xn = mol fraction of the nth substance listed; settings: 308.15 K; 100 kPa; Liquid; Cone and plate viscometry; x1 = 0.6
Listed here are compounds together with their documented viscosity.
Hi! Could you send only the number? It should be in mPa·s, unit omitted.

{"compound": "CCCCCCCCCCCCCC[P+](CCCCCC)(CCCCCC)CCCCCC.N#Cc1ccc[n-]1 [trihexyl(tetradecyl)phosphonium 2-cyanopyrrolide] + CCCCCC[n+]1ccn(C)c1.O=S(=O)([N-]S(=O)(=O)C(F)(F)F)C(F)(F)F", "unit-descriptor": "mPa·s", "result": 177}

Recorded result, CC(=O)[O-].CCCCCCCCCCCCCC[P+](CCCCCC)(CCCCCC)CCCCCC [trihexyl(tetradecyl)phosphonium acetate] + CCCCCC[n+]1ccn(C)c1.O=S(=O)([N-]S(=O)(=O)C(F)(F)F)C(F)(F)F , viscosity: 277

Recorded result, CCCCCCCC[P+](CC)(CC)CC.O=[N+]([O-])c1cn[n-]c1 [triethyloctylphosphonium 4-nitropyrazolide] + CCCCCCn1cc[n+](C)c1C.O=S(=O)([N-]S(=O)(=O)C(F)(F)F)C(F)(F)F , viscosity: 139

Recorded result, CCCCCCn1cc[n+](C)c1.N#Cc1ccc[n-]1 [1-hexyl-3-methylimidazolium 2-cyanopyrrolide] + CCCCCCCCCCCCCC[P+](CCCCCC)(CCCCCC)CCCCCC.O=S(=O)([N-]S(=O)(=O)C(F)(F)F)C(F)(F)F , viscosity: 169

---

conditions: 278.15 K; 100 kPa; Liquid; Cone and plate viscometry
# label = true (1) if viscosity >= 100 mPa·s else false (0)

{"compound": "CCCC[n+]1ccn(C)c1.O=S(=O)([N-]S(=O)(=O)C(F)(F)F)C(F)(F)F", "category": "true (1)"}
{"compound": "CCCCCCCCCCCCCC[P+](CCCCCC)(CCCCCC)CCCCCC.N#Cc1ccc[n-]1 [trihexyl(tetradecyl)phosphonium 2-cyanopyrrolide]", "category": "true (1)"}

Enquiry: Does "CC[P+](CC)(CC)COCCOC.O=S(=O)([N-]S(=O)(=O)C(F)(F)F)C(F)(F)F" have a reported viscosity of at least 100 mPa·s?
Return: false (0)

Enquiry: Does CCCCCCn1cc[n+](C)c1.N#Cc1ccc[n-]1 [1-hexyl-3-methylimidazolium 2-cyanopyrrolide] have a reported viscosity of at least 100 mPa·s?
Return: true (1)

Enquiry: Does "CCn1cc[n+](C)c1.O=S(=O)([N-]S(=O)(=O)C(F)(F)F)C(F)(F)F" have a reported viscosity of at least 100 mPa·s?
Return: false (0)

src = the NIST ThermoML archive (doi:10.1021/acs.jced.7b00221)
